experiment: Viability of reconstructed cornea-like epithelium (eye irritation model); type: cell-based; conditions: human, reconstructed cornea-like epithelium (RhCE, EpiOcular™)
Where a SMILES comes first, the peptide text is derived from it.
quantity.name: viability at 100 µg/mL
// unit must come after the numeric part

Fill in: viability at 100 µg/mL of N=C(N)NCCC[C@@H]1NC(=O)CNC(=O)[C@H](Cc2c[nH]c3ccccc23)NC(=O)[C@H](Cc2ccccc2)NC(=O)[C@H](Cc2c[nH]c3ccccc23)NC(=O)[C@@H](Cc2ccccc2)NC(=O)[C@H](CCCCN)NC(=O)[C@H](CCCCN)NC1=O [MFIGAF001, Cyclo(Arg-Lys-Lys-phe-Trp-Phe-Trp-Gly)] (HELM PEPTIDE1{F.W.G.R.K.K.[dF].W}$PEPTIDE1,PEPTIDE1,1:R1-8:R2$$$V2.0) is ___ 87.3%

----------
tested on: Fusarium oxysporum; assay type: cell-based; conditions: 24 h
Where a SMILES comes first, the peptide text is derived from it.
Recorded IC50 Fusarium oxysporum for the following compounds
Return type: number; implicit unit µg/mL.

N=C(N)NCCC[C@H](N)C(=O)N[C@@H](CCCCN)C(=O)N[C@@H](CCCCN)C(=O)N1CCC[C@@H]1C(=O)N[C@@H](Cc1c[nH]c2ccccc12)C(=O)N[C@@H](Cc1ccccc1)C(=O)N[C@@H](Cc1c[nH]c2ccccc12)C(=O)NCC(=O)O [MFIGAF004] ... 4.1

Fill in: IC50 Fusarium oxysporum of C[C@@H](NC(=O)[C@H](CCCCN)NC(=O)[C@H](CCCCN)NC(=O)[C@@H](N)CCCNC(=N)N)C(=O)N[C@@H](Cc1c[nH]c2ccccc12)C(=O)N[C@@H](Cc1ccccc1)C(=O)N[C@@H](Cc1c[nH]c2ccccc12)C(=O)NCC(=O)O [MFIGAF000, NH2-Arg-Lys-Lys-ala-Trp-Phe-Trp-Gly-COOH] (HELM PEPTIDE1{R.K.K.[dA].W.F.W.G}$$$$V2.0) is ___ 4.2

----------
test: Viability of reconstructed cornea-like epithelium (eye irritation model); format: cell-based; settings: human, reconstructed cornea-like epithelium (RhCE, EpiOcular™)
Where a SMILES comes first, the peptide text is derived from it.
quantity.name: viability at 500 µg/mL (%)
Return type: number; implicit unit %.

Fill in: viability at 500 µg/mL of N=C(N)NCCC[C@@H]1NC(=O)CNC(=O)[C@H](Cc2c[nH]c3ccccc23)NC(=O)[C@H](Cc2ccccc2)NC(=O)[C@H](Cc2c[nH]c3ccccc23)NC(=O)[C@@H](Cc2ccccc2)NC(=O)[C@H](CCCCN)NC(=O)[C@H](CCCCN)NC1=O [MFIGAF001, Cyclo(Arg-Lys-Lys-phe-Trp-Phe-Trp-Gly)] (HELM PEPTIDE1{F.W.G.R.K.K.[dF].W}$PEPTIDE1,PEPTIDE1,1:R1-8:R2$$$V2.0) is ___ 93.7
